test system: Human RSV-A (“Long” strain); experiment: RSV in vitro cytoprotection assay (CPE, ATPlite) in HEp-2 cells; type: cell-based; settings: human respiratory syncytial virus, 96 h; HEp-2 cells, 4-day incubation, ATPlite readout; read-out: Human RSV-A (“Long” strain) EC50
pEC50: −log10 of the molar value.
experimental readout: pEC50

Prompt: Enter reported pEC50 observed with Human RSV-A (“Long” strain) for `Cc1cnc(N2CC3(CCOCC3)C2)c(C(=O)Nc2ccc(C(=O)N3CCc4cc(C(=O)Nc5c(F)cccc5Cl)oc4-c4ccc(F)cc43)cc2)c1`
Completion: > 8.00

Prompt: Enter reported pEC50 observed with Human RSV-A (“Long” strain) for `O=C(Nc1c(F)cccc1F)c1cc2c(s1)-c1ccc(F)cc1N(C(=O)c1ccc(NC(=O)c3cccnc3N3CC4CCC(C3)O4)cc1)CC2`
Completion: 7.30 to 8.00

Prompt: Enter reported pEC50 observed with Human RSV-A (“Long” strain) for `Cc1cnc(N2CC3(CCOCC3)C2)c(C(=O)Nc2ccc(C(=O)N3CCc4cc(NS(=O)(=O)c5ccccc5F)sc4-c4ccccc43)cc2)c1`
Completion: < 7.30

Prompt: Enter reported pEC50 observed with Human RSV-A (“Long” strain) for `O=C(Nc1c(Cl)cccc1Cl)c1cc2c(o1)-c1ccccc1N(C(=O)c1ccc(NC(=O)c3cc4c(nc3N3CC5(CCOCC5)C3)CCC4)cc1)CC2`
Completion: > 8.00

Prompt: Enter reported pEC50 observed with Human RSV-A (“Long” strain) for `O=C(Nc1ccccc1F)c1cc2c(o1)-c1ccccc1N(C(=O)c1ccc(NC(=O)c3cc4c(nc3N3CC5(CCOCC5)C3)CCC4)cc1)CC2`
Completion: > 8.00

Prompt: Enter reported pEC50 observed with Human RSV-A (“Long” strain) for `Cc1cnc(N2CC3(CCOCC3)C2)c(C(=O)Nc2ccc(C(=O)N3CCc4cc(-c5n[nH]c6ccccc56)sc4-c4ccc(F)cc43)cc2)c1`
Completion: > 8.00
